Biological target: human CLDN-18.2 (human, UniProt P56856-2 1-261)
Experiment: cell-based or functional assay
endpoint label: EC50 of CDC effect (complement serum, PI staining, flow cytometry) (µg/mL)
Number in µg/mL, nothing else.

In the examples that follow, each entry is paired with its recorded EC50 of CDC effect (complement serum, PI staining, flow cytometry).
anti-CLDN-18.2 chimeric antibody Chi-JS012-10 (antibody, V domains shown, Human heavy chain constant region and human kappa constant region) VH: QIQLVQSGPELKKPGETVKISCKASGYTFTNYGMNWVKQAPGKGLKWMGWINTYTGESTYADDFKGRFAFSSETSARTAYLQINNLKNEDMATYFCATLGYGNSLAYWGQGTLVTVSS VL: DIVMTQSPSFLTVTAGEKVTMSCKSSQSLLNSGNQKNYLTWYQQKPGQPPKLLIYWASTRDSGVPDRFTGSGSGTDFTLTITSVQAEDLAVFYCQNAYFYPFTFGSGTKLEIK :: 0.358
anti-CLDN-18.2 chimeric antibody Chi-JS012-2 (antibody, V domains shown, Fused to a human heavy chain constant region and a human kappa constant region cloned from human blood cells) VH: DVQLVESGGGLVQPGGSRKLSCAASGFTLNNFGMHWVRQAPEKGLEWVACISSGSGTIYYADTVKGRFTISRDNPKNTLFLQMTSLRSEDTAMYYCARAYYGNGFSFWGQGTLVTVSS VL: DIVMTQSPSSLTVTAGEKVTMSCKSSQSLLNSGNQKNYLTWYQQKPGQPPKLLIYWASTRESGVPDRFTGSGSGTDFTLTISSVQAEDLAIYYCQNVYSYPLTFGAGTKLEIK :: 0.461
IMAB362 (antibody, V domains shown) VH: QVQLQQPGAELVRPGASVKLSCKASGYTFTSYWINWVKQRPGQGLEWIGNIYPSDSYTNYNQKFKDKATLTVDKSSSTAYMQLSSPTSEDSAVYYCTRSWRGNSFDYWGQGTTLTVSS VL: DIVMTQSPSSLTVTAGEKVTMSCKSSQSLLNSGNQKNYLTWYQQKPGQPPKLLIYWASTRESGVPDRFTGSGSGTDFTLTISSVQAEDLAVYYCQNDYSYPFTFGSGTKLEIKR :: 0.354
anti-CLDN-18.2 chimeric antibody Chi-JS012-9 (antibody, V domains shown, Human heavy chain constant region and human kappa constant region) VH: QIQLVQSGPELKKPGETVKISCKASGYTFTNYGMNWVKQAPGKGLKWMGWINTYTGESTYADDFKGRFAFSSETSARTAYLQINNLKNEDMATYFCATLGYGNSLAYWGQGTLVTVSS VL: DIVMTQYPSFLTVTTGEKVTMSCKSSQSLLNSGNQRNYLTWYQQKPGQPPKLLIYWASTRESGVPDRFAGSGSGTDFTLTISSVQAEDLAIYYCQNNYFYPFTFGSGTKLEVK :: 0.316

Turning now to a further record.
Query string: Reported EC50 of CDC effect (complement serum, PI staining, flow cytometry), binder anti-CLDN-18.2 chimeric antibody Chi-JS012-27 (antibody, V domains shown, Human heavy chain constant region and human kappa constant region) VH: EVKLVESGGGLVKPGGSLKLSCAASGFTFSSYGMSWVRQTPEKRLECVATISGGDSYTYYPDSVRGRFTISRDIAKNNLYLQMSSLRSEDTALYYCARSYNGNSLPYWGQGTLVTVSS VL: DIVMTQYPSFLTVTTGEKVTMSCKSSQSLLNSGNQRNYLTWYQQKPGQPPKLLIYWASTRESGVPDRFAGSGSGTDFTLTISSVQAEDLAIYYCQNNYFYPFTFGSGTKLEVK : ____
Result string: 0.265

The measured values listed here are drawn from patent US20240059771A1.
